# SYSTEM_NAME: CD38 (shCD38) (Homo sapiens)
# Construct: human CD38 catalytic domain (shCD38)
# Sequence (P28907 45-300 limits assumed): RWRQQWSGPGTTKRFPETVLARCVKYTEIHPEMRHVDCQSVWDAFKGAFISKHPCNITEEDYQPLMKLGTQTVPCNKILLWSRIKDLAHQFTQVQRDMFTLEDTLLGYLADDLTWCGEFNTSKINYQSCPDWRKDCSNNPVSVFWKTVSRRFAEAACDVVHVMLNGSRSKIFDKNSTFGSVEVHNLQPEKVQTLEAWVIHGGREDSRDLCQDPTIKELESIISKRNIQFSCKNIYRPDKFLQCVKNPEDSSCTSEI
# TEST_DETAILS: inhibition of cADPR hydrolysis, fluorimetric cycling assay; also hydrolysed by shCD38 (RP-HPLC)
# Format: biochemical
# CONDITION_INFO: read-out: L-Ribose / IC50
MEASURE_NAME: pIC50
Please treat pIC50 as minus the base-10 logarithm of the molar concentration.

Prompt: Name the reported pIC50 value associated with the compound O=c1c2ncn3c2ncn1[C@H]1O[C@@H](COP(=O)(O)OP(=O)(O)OC[C@H]2O[C@@H]3[C@H](O)[C@@H]2O)[C@H](O)[C@@H]1O
Completion: 3.28

====

# SYSTEM_NAME: CD38 (shCD38) (Homo sapiens)
# Construct: human CD38 catalytic domain (shCD38)
# TEST_DETAILS: inhibition of cADPR hydrolysis, fluorimetric cycling assay
# Assay type: biochemical
# CONDITION_INFO: read-out: L-Ribose / IC50
MEASURE_NAME: pIC50
Note on units: pIC50 is unitless, being -log10 of a concentration expressed in mol/L.

Prompt: Give the measured pIC50 of Nc1nc2c(=O)n3cnc2n1[C@@H]1O[C@H](COP(=O)(O)OP(=O)(O)OC[C@@H]2O[C@H]3[C@@H](O)[C@H]2O)[C@@H](O)[C@H]1O [compound 7, 8-NH2-L-cIDPR] .
Completion: 4.68
